- TARGET_UNDER_TEST: mu opioid receptor (CHO-hMOR cell membranes) (Homo sapiens, UniProt P35372)
- Sequence (P35372 whole entry): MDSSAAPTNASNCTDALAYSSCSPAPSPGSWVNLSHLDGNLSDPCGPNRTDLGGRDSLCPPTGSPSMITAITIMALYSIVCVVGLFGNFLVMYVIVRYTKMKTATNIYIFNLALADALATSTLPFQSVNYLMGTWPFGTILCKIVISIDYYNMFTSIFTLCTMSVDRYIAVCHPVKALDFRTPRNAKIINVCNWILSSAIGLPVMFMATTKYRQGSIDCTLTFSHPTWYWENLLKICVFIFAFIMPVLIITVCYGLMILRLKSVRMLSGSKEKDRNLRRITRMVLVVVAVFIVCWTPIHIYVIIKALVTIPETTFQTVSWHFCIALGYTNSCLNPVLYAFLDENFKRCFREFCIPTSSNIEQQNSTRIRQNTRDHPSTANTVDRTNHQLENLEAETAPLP
- ASSAY_SUMMARY: Mu Opioid Receptor Functional Assay: [35S]GTPγS Binding in CHO-hMOR Cell Membranes, Versions 1 and 2
- CONDITIONS: version 2, read-out: MOR GTP binding assay v2 EC50
- Description: CHO-hMOR cell membranes were purchased from Receptor Biology, Inc. (Baltimore, Md.). About 10 mg/ml of membrane protein was suspended in 10 mM TRIS-HCl pH 7.2, 2 mM EDTA, 10% sucrose, and the suspension kept on ice. […] Compounds were tested for function as antagonists by evaluating their potential to inhibit agonist-stimulated GTPγS binding. Radioactivity was quantified on a Packard TopCount. The following parameters were calculated: […] EC50 values were calculated using GraphPad Prism.
Provide the recorded EC50 for the entries that follow.
Answers are plain numbers, in µM.

Answered examples (2):
[
  {
    "COMPOUND_SMILES": "Cc1cc(C(N)=O)cc(C)c1C[C@H](N)C(=O)N(Cc1ccc(C(=O)O)nc1)[C@@H](C)c1nc(-c2ccccc2)c[nH]1",
    "READING": 0.316
  },
  {
    "COMPOUND_SMILES": "Cc1cc(C(N)=O)cc(C)c1C[C@H](N)C(=O)N(Cc1ccc(C(=O)O)cn1)[C@@H](C)c1nc(-c2ccccc2)c[nH]1",
    "READING": 0.251
  }
]

# ---- query compound ----
What value of EC50 has been reported for the following compound? COC(=O)c1cccc(CN(C(=O)[C@@H](N)Cc2c(C)cc(C(N)=O)cc2C)[C@@H](C)c2nc(-c3ccccc3)c[nH]2)n1
0.0506
